Test system: NCI-H460
PROTOCOL_SUMMARY: Cytostatic activity against human NCI-H460 cells after 72 hrs by MTT assay
Format: functional, cell-based
MEASUREMENT_CONTEXT: NCI-H460, 72 h
pIC50: −log10 of the molar value.
In this section, each of the molecules is paired with its reported pIC50.
MEASURED_PROPERTY: pIC50

# MOLECULE, TEST_VALUE
rows = [
    ("CC(C)Cc1ccc(C(C)C(=O)NNC(=O)NC2CCCC2)cc1 (stereo not drawn)", 4.49),
    ("CC(C(=O)NNC(=O)NCCc1ccccc1)c1cccc(Oc2ccccc2)c1 (stereo not drawn)", 4.66),
    ("CC(C(=O)NNC(=O)NC1CCCCC1)c1cccc(Cc2ccccc2)c1 (stereo not drawn)", 4.64),
]
